# system under test: first (BD1: amino acids K57-E168) bromodomain of BRD4 (Homo sapiens)
# Construct: His-tagged first (BD1: amino acids K57-E168)
# assay explanation: TR-FRET bromodomain binding assay, BRD4 BD1
# assay context: TR-FRET assay protocol (A-G, compound concentration range); Ki calculated from IC50, probe Kd and probe concentration; read-out: TR-FRET Binding Ki: BRD4 (BDI_K57-E168)
Doc: threshold 0.1 µM (exclusive). Items with Ki beneath it return Fulfilled; others return Not fulfilled.

q: is_below(Ki, 0.1 µM) for CCS(=O)(=O)Nc1ccc(Oc2ccc(F)cc2F)c(-c2cn(C)c(=O)cc2-c2cscc2C=O)c1 [Example 332] ?
a: Not fulfilled

***
q: Lab log: compare recorded Ki with 0.1 µM; is it strictly lower for COc1cc(=O)n(C)cc1-c1ccccc1Oc1ccccc1 [Example 258] ?
a: Not fulfilled
